measuredTarget: BCL2 D103Y (Homo sapiens, UniProt P10415, D103Y)
assayOverview: TR-FRET competitive binding assay, BCL2 D103Y
conditionSummary: Ki determined from IC50, read-out: TR_FRET EKI_Bcl2 D103Y
experimentalReadout: pKi
// pKi is dimensionless: -log10 of concentration (M)

Cc1c(C(=O)N(c2ccc(O)cc2)c2cc(C#N)n(C(F)F)c2C)cc(-c2cc3c(cc2C(=O)N2Cc4ccccc4C[C@H]2CN2CCCCC2)CN(C(=O)Cc2ccc(OCCN(C)C4CC4)cc2)CC3)n1C :: 9.19

Q: Fill in the blank: the reported pKi of Cc1ccc(N(C(=O)c2cc(-c3cc4c(cc3C(=O)N3Cc5ccccc5C[C@H]3C)CN(C(=O)Cc3ccc(OCCN5CCOCC5)cc3F)CC4)n(C)c2C)c2ccccc2)cc1C#N is ____.
Result: 10.22

Q: Would you mind doing Cc1c(N(C(=O)c2cc(-c3cc4c(cc3C(=O)N3Cc5ccccc5C[C@H]3CN3CCC5(CC5)C3)CN(C(=O)Cc3ccc(OCCN5CCOCC5)cc3F)CC4)n(C)c2C)c2ccc(O)cc2)cc(C#N)n1C as well?
Result: 9.80

Q: Also, COc1ccc(CC(=O)N2CCc3cc(-c4cc(C(=O)N(c5ccc(O)cc5)c5cc(C#N)n(C)c5C)c(C)n4C)c(C(=O)N4Cc5ccccc5C[C@H]4CN4CCCCC4)cc3C2)c(F)c1 please.
Result: 9.66
